tested target: UniProt:Q9H0K1
Sequence (Q9H0K1 whole entry, species assumed): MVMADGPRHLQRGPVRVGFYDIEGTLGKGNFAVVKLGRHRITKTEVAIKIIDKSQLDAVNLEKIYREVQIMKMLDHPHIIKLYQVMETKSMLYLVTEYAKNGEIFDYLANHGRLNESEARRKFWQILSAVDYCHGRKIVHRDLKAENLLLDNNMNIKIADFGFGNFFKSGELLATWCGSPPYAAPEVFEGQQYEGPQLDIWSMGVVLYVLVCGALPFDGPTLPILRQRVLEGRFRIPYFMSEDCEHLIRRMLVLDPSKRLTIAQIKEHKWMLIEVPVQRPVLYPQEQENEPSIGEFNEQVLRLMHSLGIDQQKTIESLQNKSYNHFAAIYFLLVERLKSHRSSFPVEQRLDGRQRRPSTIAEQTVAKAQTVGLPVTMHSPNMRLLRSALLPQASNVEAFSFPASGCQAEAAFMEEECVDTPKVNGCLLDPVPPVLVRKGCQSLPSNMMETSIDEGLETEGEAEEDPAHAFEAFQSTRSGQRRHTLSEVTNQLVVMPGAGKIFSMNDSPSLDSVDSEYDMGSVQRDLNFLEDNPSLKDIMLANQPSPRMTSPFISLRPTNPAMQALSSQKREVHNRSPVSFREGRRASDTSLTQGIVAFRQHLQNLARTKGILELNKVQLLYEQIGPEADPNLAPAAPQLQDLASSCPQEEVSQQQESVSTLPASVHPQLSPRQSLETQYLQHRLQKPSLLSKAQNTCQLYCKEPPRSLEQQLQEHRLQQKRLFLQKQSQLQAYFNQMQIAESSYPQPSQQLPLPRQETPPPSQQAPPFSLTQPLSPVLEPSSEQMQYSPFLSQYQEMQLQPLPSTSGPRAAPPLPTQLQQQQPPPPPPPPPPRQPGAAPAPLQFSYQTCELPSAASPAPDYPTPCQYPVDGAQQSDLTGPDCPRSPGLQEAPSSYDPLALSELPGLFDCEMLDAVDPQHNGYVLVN
assay text: SIK2 Enzymatic Assay Version 2 (High ATP)
Format: biochemical
test settings: 3 mM ATP and 200 μM HDAC5tide final, ADP-Glo Max luminescence
endpoint name: IC50 (µM)

Below are worked cases with known answers.
Please look up its IC50: Cn1ncc(OC[C@@H](N)C(C)(C)C)c1-c1ccn2nc(NC(=O)C3CC3)cc2c1 [Example 348] 0.0553

Also CCn1ncc(OC[C@@H]2CCNC2)c1-c1ccn2nc(NC(=O)C3CC3)cc2c1 [Example 312] , if possible. 0.0443

[a] Cc1onc(OC[C@](C)(N)c2ccccc2)c1-c1ccn2nc(NC(=O)C3CC3)cc2c1 [Example 326]
[b] Cn1ncc(OC[C@H]2CCN2CC(F)(F)F)c1-c1ccn2nc(NC(=O)C3CC3)cc2c1 [Example 315]
[c] Cc1cc(C(=O)NC(C)C)cc(Nc2cc3cc(-c4c(OC[C@H]5CCN5C)cnn4C)ccn3n2)n1 [Example 112]
[d] CN1CC[C@H](Oc2cnn(C)c2-c2ccn3nc(Nc4cnc5c(ccn5C)c4)cc3c2)C1 [Example 460]
Could you please sort these 4 entries by IC50 from high to low? # respond with the labels, arranged in the requested order d, a, b, c
(d: 0.164 µM, a: 0.06 µM, b: 0.0141 µM, c: 0.0027 µM)
